Quick list: protein stability index per entry.
System: Saccharomyces cerevisiae
Assay Comment: protein stability index of tFT-peptide fusion (C-terminal peptide) (PSI (0-1 scale)); higher = more stable (slower turnover)
Condition Notes: genetic background: wild type; temperature: 30 C
Reply with just the number.

Monomer Sequence	protein stability index
KRESNSKQTEKV	0.7
CVPGPRWWYHSA	0.446
LGWRLFNDVRRG	0.707
LFQVRLVDLSRI	0.674
IPPLNQDPFCAS	0.678

Req: Note protein stability index for the sequence shown: FCPPLAFPPPLS
Resp: 0.743

Req: Note protein stability index for the sequence shown: VLLQDLSYLIGQ
Resp: 0.707

Req: Note protein stability index for the sequence shown: VEHQVNMGDGEM
Resp: 0.635

Req: Note protein stability index for the sequence shown: LNGSRDEHKVMS
Resp: 0.674

Req: Note protein stability index for the sequence shown: AEQLALSQLSYV
Resp: 0.687

Req: Note protein stability index for the sequence shown: LLVRSFIFPLVY
Resp: 0.367

* * *

Test system: Saccharomyces cerevisiae
Assay Comment: protein stability index of tFT-peptide fusion (C-terminal peptide) (PSI (0-1 scale)); higher = more stable (slower turnover)
Condition Notes: genetic background: wild type; temperature: 30 C
Quantity Measured: protein stability index
Reply with just the number.

Req: Fill: protein stability index (Saccharomyces cerevisiae) for this sequence LPPPPYPEFYPC
Resp: 0.772

Req: Fill: protein stability index (Saccharomyces cerevisiae) for this sequence VVEKKKKKKNNK
Resp: 0.73

* * *

System: Saccharomyces cerevisiae
Assay Comment: protein stability index of tFT-peptide fusion (C-terminal peptide) (PSI (0-1 scale)); higher = more stable (slower turnover)
Condition Notes: genetic background: das1 deletion; temperature: 30 C
Quantity Measured: protein stability index
Reply with just the number.

// worked examples, protein stability index included
Monomer Sequence	Assay Value
GLLVVFDRIDVK [MET7 C-terminal 12 aa]	0.667
EQSEQPEQHQDK [RPN10 C-terminal 12 aa]	0.697
INIVVDMLASQH [RMD1 C-terminal 12 aa]	0.606
PNAIRGIKAKKA [COX7 C-terminal 12 aa]	0.723

Req: Note protein stability index for the sequence shown: GVETIAKCIDLL [CAR2 C-terminal 12 aa]
Resp: 0.71

Req: Note protein stability index for the sequence shown: KKQLLPSKTVDN [HED1 C-terminal 12 aa]
Resp: 0.688

* * *

Tested on: Saccharomyces cerevisiae
Assay Comment: protein stability index of tFT-peptide fusion (C-terminal peptide) (PSI (0-1 scale)); higher = more stable (slower turnover)
Condition Notes: genetic background: wild type; temperature: 30 C
Quick list: protein stability index per entry.
Reply with just the number.

Monomer Sequence	Assay Value
SFSPNRAVSFST	0.727
RCAGCFDSAFSW	0.746
PPTHPPLPPPLL	0.689
REKLINEKRIRR	0.704
ETKRRQEQNIVR	0.721
PVRSPPPLPSPP	0.653
WGRFGYGPAVVG	0.735
MDIVIGSQTEAN	0.737
KDDKQRKQHGKK	0.663
SQRRGLLGRFRI	0.695

Could you now look at the following sequence, please?
Req: Note protein stability index for the sequence shown: YPTTSWNPARSV
Resp: 0.692

* * *

Tested on: Saccharomyces cerevisiae
Assay Comment: protein stability index of tFT-peptide fusion (C-terminal peptide) (PSI (0-1 scale)); higher = more stable (slower turnover)
Condition Notes: genetic background: cdc34-1; temperature: 37 C
Quantity Measured: protein stability index
Reply with just the number.

Monomer Sequence	protein stability index
FLSRLVGFYFVV	0.606

Req: Fill: protein stability index (Saccharomyces cerevisiae) for this sequence FVCFSFFFPFLL
Resp: 0.401

Req: Fill: protein stability index (Saccharomyces cerevisiae) for this sequence SILFSYFCFFLL
Resp: 0.523

Req: Fill: protein stability index (Saccharomyces cerevisiae) for this sequence SVFFRPVLICCA
Resp: 0.0234
